# protocol_summary: small-molecule microarray binders of probe aLefty2, primary screen, biochemical, biotinylated probe, 635/667 nm fluorescence (AID 1094);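 also: score merges spot fluorescence near 667 nm with spot signal-to-noise ratio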
# assay_setup: higher = more signal
measured_parameter: composite z-score
# output: bare number, no unit

Answered examples (2):
- smiles_code: "CO[C@H]1O[C@H](CO)[C@@H](OC(=O)Nc2ccccc2)[C@@H]2OC(=O)[C@@H](Cc3ccccc3)C/C=C/C[C@H](Cc3ccccc3)C(=O)O[C@@H]12"
  composite z-score: 0.142
- smiles_code: "[N-]=[N+]=NCc1ccccc1C[C@]1(C(=O)N2CCCCC2)COC(c2ccc(OCCCO)cc2)=N1"
  composite z-score: 0.346

Per the records, this compound ( C=CCOC(=O)[C@H]1[C@@H]2C(=O)O[C@@H](c3ccccc3)[C@@H](c3ccccc3)N2[C@@H](c2ccc(OCCOC(=O)[C@H]3C[C@H]4C(=O)NCC(=O)N4[C@H]3c3ccc(O)cc3)cc2)[C@]12C(=O)Nc1ccccc12 ) has composite z-score equal to 0.0337
